Experiment: in vivo
Conditions: mouse, in vivo, iv, 100 mg/kg, TFT concentration in liver by HPLC, CCl4 hepatitis

{"columns": ["Compound", "concentration at 2 h"],
 "data": [
  ["O=c1[nH]c(=O)n([C@H]2C[C@H](O)[C@@H](CO)O2)cc1C(F)(F)F [TFT, trifluorothymidine]", "< 1000 ng/g"]
]}

###

Assay: TFT (19F) concentration in mouse livers by 19F NMR spectroscopy after i.v. injection
Design: species or system CBA/J mice; HSV-2 (333 strain)
Conditions: in vivo, iv, 100 mg/kg, TFT concentration in liver homogenate by 19F NMR (FIG. 3B)
Procedure: ^19 F assay was carried out in a Nicolet-GE NT-300 NMR spectrometer, using standard techniques with a simple one-pulse sequence. The field was 7.05 Tesla (T) and the frequency was 282 megahertz. […] Sufficient material was available from 4 mice/group to measure ^19 F levels by NMR spectroscopy of the whole liver under conditions as described. The results are shown in Table 3 compared with the HSV pfu/g liver where applicable and the TFT levels as measured on a small portion of same samples by HPLC. […]

{"columns": ["Mol", "concentration at 3.5 h"],
 "data": [
  ["O=c1[nH]c(=O)n([C@H]2C[C@H](O)[C@@H](CO)O2)cc1C(F)(F)F", "11000 ng/g"]
]}

###

Assay: in vivo
Settings: mouse, in vivo, iv, 160 mg/kg, Mean conc. of TFT in liver, uninfected mice

{"columns": ["Mol", "Units Symbol", "concentration at 2 h"],
 "data": [
  ["O=c1[nH]c(=O)n([C@H]2C[C@H](O)[C@@H](CO)O2)cc1C(F)(F)F", "ng/g", 14700]
]}

###

Experiment: in vivo
Details: mouse, in vivo, iv, 160 mg/kg, Mean conc. of TFT in liver, infected mice
Readout Kind: concentration at 2 h (ng/g)

{"columns": ["Mol", "Value Reported"],
 "data": [
  ["O=c1[nH]c(=O)n([C@H]2C[C@H](O)[C@@H](CO)O2)cc1C(F)(F)F", 110000]
]}
